Organism: Homo sapiens
assay.procedure: Selectivity ratio of IC50 for human nAChR alpha3/beta4 receptor to IC50 for human nAChR alpha4/beta2 receptor
// values below are reported Ratio IC50
Number only, no unit.

compound	Ratio IC50
O=C(OCC1CCCN(C(=O)CCc2ccccc2)C1)c1ccccc1C(F)(F)F (centres undefined)	2.1

Note down Ratio IC50 recorded for O=C(OC1CCCN(C(=O)CCc2ccccc2)C1)c1ccccc1-c1ccccc1 (centres undefined)
1.5

Note down Ratio IC50 recorded for O=C(OCC1CCN(C(=O)CCc2ccccc2)CC1)c1ccccc1-c1ccccc1
1.4

###

system.name: Neuronal acetylcholine receptor; alpha4/beta2 (Homo sapiens, UniProt P17787+P43681)
Sequence (P17787 whole entry): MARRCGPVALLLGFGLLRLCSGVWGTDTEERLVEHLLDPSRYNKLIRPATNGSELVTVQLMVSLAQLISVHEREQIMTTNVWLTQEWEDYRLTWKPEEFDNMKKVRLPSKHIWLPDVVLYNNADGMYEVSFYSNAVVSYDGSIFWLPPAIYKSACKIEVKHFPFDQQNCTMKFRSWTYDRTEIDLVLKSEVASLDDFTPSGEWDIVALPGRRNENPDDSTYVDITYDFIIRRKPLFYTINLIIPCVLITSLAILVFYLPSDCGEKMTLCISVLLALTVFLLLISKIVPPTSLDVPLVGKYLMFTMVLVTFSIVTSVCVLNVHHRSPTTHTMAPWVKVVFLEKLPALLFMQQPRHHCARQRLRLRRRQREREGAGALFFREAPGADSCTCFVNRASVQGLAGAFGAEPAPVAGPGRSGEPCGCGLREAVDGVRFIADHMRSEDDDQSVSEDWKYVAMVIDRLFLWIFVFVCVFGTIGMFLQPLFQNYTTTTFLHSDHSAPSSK
Sequence (P43681 whole entry): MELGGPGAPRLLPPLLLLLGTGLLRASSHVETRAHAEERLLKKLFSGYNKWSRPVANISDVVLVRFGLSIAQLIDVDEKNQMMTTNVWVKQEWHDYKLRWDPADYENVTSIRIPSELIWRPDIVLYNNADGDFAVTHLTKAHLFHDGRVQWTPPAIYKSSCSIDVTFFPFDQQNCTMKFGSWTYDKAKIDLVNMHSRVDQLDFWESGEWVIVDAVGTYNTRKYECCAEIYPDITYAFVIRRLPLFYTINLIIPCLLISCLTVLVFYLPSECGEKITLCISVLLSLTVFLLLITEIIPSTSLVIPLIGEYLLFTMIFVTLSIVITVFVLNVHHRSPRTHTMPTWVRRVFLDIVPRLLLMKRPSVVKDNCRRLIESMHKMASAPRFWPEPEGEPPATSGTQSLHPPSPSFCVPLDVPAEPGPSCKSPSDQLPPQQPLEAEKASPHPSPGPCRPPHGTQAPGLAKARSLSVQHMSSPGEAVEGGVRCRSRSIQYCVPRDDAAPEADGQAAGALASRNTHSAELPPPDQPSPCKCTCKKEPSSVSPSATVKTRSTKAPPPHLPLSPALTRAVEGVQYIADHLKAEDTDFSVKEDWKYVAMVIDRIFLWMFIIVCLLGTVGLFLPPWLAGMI
assay.procedure: Antagonist activity at human nAChR alpha4/beta2 receptor expressed in HEK ts201 cells assessed as calcium accumulation by fluorescence analysis
Type: functional, cell-based
study.conditions: read-out: pIC50 (converted)
reported.metric: IC50

Please report IC50 with Neuronal acetylcholine receptor; alpha4/beta2 (Homo sapiens, UniProt P17787+P43681) for item CC1CC(=O)N(c2ccccc2C(=O)OCC2CCCN(CCOc3cccc(-c4ccccc4)c3)C2)C1=O (stereo unspecified) .
7.24 µM

Please report IC50 with Neuronal acetylcholine receptor; alpha4/beta2 (Homo sapiens, UniProt P17787+P43681) for item CC1CC(=O)N(c2ccccc2C(=O)OCC2CCCN(CCOc3cccc4ccccc34)C2)C1=O (stereo unspecified) .
3.89 µM

Please report IC50 with Neuronal acetylcholine receptor; alpha4/beta2 (Homo sapiens, UniProt P17787+P43681) for item CC(C)N1CC(OC(=O)c2ccccc2-c2ccccc2)C2CC1C1OC(C)(C)OC21 (stereo unspecified) .
9.55 µM

Please report IC50 with Neuronal acetylcholine receptor; alpha4/beta2 (Homo sapiens, UniProt P17787+P43681) for item O=C(OCC1CCCN(CCCCCOc2ccc(Cl)cc2)C1)c1ccccc1-c1ccccc1 (stereo unspecified) .
14.5 µM

Please report IC50 with Neuronal acetylcholine receptor; alpha4/beta2 (Homo sapiens, UniProt P17787+P43681) for item COc1ccc(CC2CC(=O)N(c3ccccc3C(=O)OCC3CCCN(CCCc4ccccc4)C3)C2=O)cc1 (stereo unspecified) .
38.9 µM

Please report IC50 with Neuronal acetylcholine receptor; alpha4/beta2 (Homo sapiens, UniProt P17787+P43681) for item CO[C@@H]1C[C@H](OC)C[C@@H](OCCN2CCCC(COC(=O)c3ccccc3N3C(=O)CC(C)C3=O)C2)C1 (stereo partly specified) .
12.6 µM

meta.source: ChEMBL document CHEMBL1949658
